B1: r4_43_TrROS_Hall (parent)
chain: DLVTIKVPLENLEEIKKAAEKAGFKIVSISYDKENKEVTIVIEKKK

Variants of: B1
Experiment Notes: folding stability dG (cDNA display proteolysis); higher = more stable
Measurement Parameters: PBS, room temperature
Parameter folding stability dG: see the listing below.
Just the number in kcal/mol, nothing appended.

| Sequence | folding stability dG (kcal/mol) |
| --- | --- |
| DLVTIKSPLENLEEIKKAAEKAGFKIVSISYDKENKEVTIVIEKKK | 3.71 |
| DLVTIKVPLENLEEIKKAAEKAGFKIVSISYCKENKEVTIVIEKKK | 3.85 |
| DLVTIKVCLENLEEIKKAAEKAGFKIVSISYDKENKEVTIVIEKKK | 3.58 |
| DLVTIMVPLENLEEIKKAAEKAGFKIVSISYDKENKEVTIVIEKKK | 3.31 |
| DLVTIGVPLENLEEIKKAAEKAGFKIVSISYDKENKEVTIVIEKKK | 2.98 |
| DLVIIKVPLENLEEIKKAAEKAGFKIVSISYDKENKEVTIVIEKKK | 3.54 |

The reported folding stability dG of the variant "DLVTIKVPLENLEEIKKAAEKNGFKIVSISYDKENKEVTIVIEKKK" was 3.54

Reported folding stability dG of "DLVTIKVPLENLEEIKKAAEKAGFKIVSISYDKENKIVTIVIEKKK" : 3.85

Reported folding stability dG for "DLVTIKVPLENLEEIKKAAEKAGFKIVSISYDKRNKEVTIVIEKKK" was 3.84

Entry "DLVTIKVPLENLEEIKKAAEKAGFEIVSISYDKENKEVTIVIEKKK" , folding stability dG reported as 3.04

Entry "DLVTVKVPLENLEEIKKAAEKAGFKIVSISYDKENKEVTIVIEKKK" — recorded folding stability dG = 3.79

The recorded folding stability dG for "DLVTIKVPLENLEEIKKAYEKAGFKIVSISYDKENKEVTIVIEKKK" is 3.68

Measured folding stability dG, "DLVTIKVPLENLEEIKKAAEKAGFKIVGISYDKENKEVTIVIEKKK" : 3.53

Given item "DLVTIKVPLENLEEIKKAAEKAGFKIVSISYDKENKEVYIVIEKKK" , the value recorded as its folding stability dG is 3.83

"DLVTIKVPLENLEEIKKAAEKAGFKIVSISNDKENKEVTIVIEKKK" yielded folding stability dG of 2.95

Entry "DLVTIKVPNENLEEIKKAAEKAGFKIVSISYDKENKEVTIVIEKKK" ; folding stability dG = 3.58

Form field folding stability dG, entry "DLVTIKVPLENLEEIKKAAEKAGFKIQSISYDKENKEVTIVIEKKK" : 3.48

Note to self: folding stability dG recorded for "DLVTIKVPLENLEEIKKAAEKAGFKIVSISYDKENKEVTIVISKKK" was 3.51

# folding stability dG (variant: "DLVTIKVPLENLEEIKKAAEKAGFKIVSISYDKENKEVTIVIEKLK" ) is 3.95

Consider "DLVTIKVPLENLEEIKKAAEKAGFKIVSISYDKENKEVTIVIEKQK" . Its measured folding stability dG is 3.73
